Procedure summary: in vivo
Experimental conditions: female, rat, iv, 3 mg/kg
Endpoint label: Tmax (min)
Answer format: numeric, min implied, no suffix.

compound CCN(CC)CC#CCOC(=O)C(O)(c1ccccc1)C1CCCCC1 (stereo not shown) , Tmax observed: 15

----------
Procedure summary: in vivo
Experimental conditions: female, rat, iv, 3 mg/kg, CL (Mean)
Endpoint label: clearance (mL/min/kg)
Answer format: numeric, mL/min/kg implied, no suffix.

molecule CCN(CC)CC#CCOC(=O)C(O)(c1ccccc1)C1CCCCC1 (stereo not shown) , clearance observed: 134

----------
Procedure summary: in vivo
Experimental conditions: female, rat, iv, 100 mg/kg, AUC0-t (Mean), gabapentin in rat plasma after 100 mg/kg gabapentin i.v., alone (Gab) or with 3 mg/kg oxybutynin (Com), group Mean, outliers excluded
Endpoint label: AUC(0-t) (µg·h/mL)
Answer format: numeric, µg·h/mL implied, no suffix.

compound "NCC1(CC(=O)O)CCCCC1" , AUC(0-t) observed: 158
